assay: Brain levels in vivo by UPLC-MS/MS; set-up: species or system rat; conditions: male, Sprague-Dawley, rat, brain, sc, 100 mg·kg^−1, male rats; 100 mg·kg−1 s.c.; 1 h per Table S12; read-out: mean brain concentration
PROPERTY MEASURED: concentration at 1 h (nM)

- COMPOUND: "O=C(NC1CCC2(CCCC2)CC1)c1ccc(-c2ccccc2)cc1 [VBJ103]"
  REPORTED RESULT: 52

====

Parameter: IC50. Scope: all listed entries.
molecular target: human TRPA1 (Homo sapiens, UniProt O75762); test: FlexStation Ca2+ flux assay in HEK293T cells transfected with human TRPA1; settings: against an EC80 concentration (10 μM) of AITC
Sequence (O75762 whole entry): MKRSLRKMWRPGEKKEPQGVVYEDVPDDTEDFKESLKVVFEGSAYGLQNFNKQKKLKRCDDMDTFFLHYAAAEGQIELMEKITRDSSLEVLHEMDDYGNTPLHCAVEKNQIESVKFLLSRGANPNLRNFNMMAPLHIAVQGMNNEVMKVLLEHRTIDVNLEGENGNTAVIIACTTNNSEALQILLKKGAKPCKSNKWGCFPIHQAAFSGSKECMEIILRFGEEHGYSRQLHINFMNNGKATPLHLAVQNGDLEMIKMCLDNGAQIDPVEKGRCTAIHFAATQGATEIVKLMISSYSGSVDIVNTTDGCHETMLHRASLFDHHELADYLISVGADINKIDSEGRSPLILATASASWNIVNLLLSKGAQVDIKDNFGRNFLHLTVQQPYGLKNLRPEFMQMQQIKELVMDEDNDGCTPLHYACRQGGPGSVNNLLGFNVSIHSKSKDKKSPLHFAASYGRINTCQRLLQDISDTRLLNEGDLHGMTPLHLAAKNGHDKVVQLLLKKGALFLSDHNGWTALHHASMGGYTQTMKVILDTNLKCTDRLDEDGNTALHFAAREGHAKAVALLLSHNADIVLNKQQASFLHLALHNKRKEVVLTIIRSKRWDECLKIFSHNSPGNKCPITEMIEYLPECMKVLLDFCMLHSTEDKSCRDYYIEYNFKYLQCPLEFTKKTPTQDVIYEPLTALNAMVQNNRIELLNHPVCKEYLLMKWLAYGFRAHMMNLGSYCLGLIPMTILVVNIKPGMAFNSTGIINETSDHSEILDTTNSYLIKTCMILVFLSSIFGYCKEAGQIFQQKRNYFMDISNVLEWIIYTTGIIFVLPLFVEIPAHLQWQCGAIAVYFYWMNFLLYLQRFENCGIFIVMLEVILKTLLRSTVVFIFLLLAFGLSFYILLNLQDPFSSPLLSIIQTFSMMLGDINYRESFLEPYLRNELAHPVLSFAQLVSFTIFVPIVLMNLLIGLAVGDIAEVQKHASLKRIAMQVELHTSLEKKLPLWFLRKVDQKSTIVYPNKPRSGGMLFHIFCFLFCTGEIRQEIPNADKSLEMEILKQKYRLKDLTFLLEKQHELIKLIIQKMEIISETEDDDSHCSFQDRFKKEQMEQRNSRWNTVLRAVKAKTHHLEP

- MOLECULE: "CC(C)c1ccc(NC(=O)Cn2cnc3c2c(=O)n(C)c(=O)n3C)cc1 [HC-030031, reference compound]"
  UNIT OF MEASURE: "nM"
  IC50: 2000
- MOLECULE: "Cl.Cl.Cl.Cl.Cl.Cl.N.N.N.N.N.N.N.N.N.N.N.N.N.N.[O-2].[O-2].[Ru+3].[Ru+3].[Ru+4] [ruthenium red, reference compound]"
  UNIT OF MEASURE: "nM"
  IC50: 53

====

assay: Partition coefficient (logD), shake flask method; format: physicochemical; settings: n-octanol / pH 7.4 phosphate buffer, pH 7.4

- MOLECULE: "O=C(NC1CCC2(CCCC2)CC1)c1ccc(-c2ccccc2)cc1 [VBJ103]"
  logD at 1 h: 3.21

====

molecular target: human TRPV1 (Homo sapiens, UniProt Q8NER1); assay: FlexStation Ca2+ flux assay in HEK293T cells transfected with human TRPV1
Sequence (Q8NER1 whole entry): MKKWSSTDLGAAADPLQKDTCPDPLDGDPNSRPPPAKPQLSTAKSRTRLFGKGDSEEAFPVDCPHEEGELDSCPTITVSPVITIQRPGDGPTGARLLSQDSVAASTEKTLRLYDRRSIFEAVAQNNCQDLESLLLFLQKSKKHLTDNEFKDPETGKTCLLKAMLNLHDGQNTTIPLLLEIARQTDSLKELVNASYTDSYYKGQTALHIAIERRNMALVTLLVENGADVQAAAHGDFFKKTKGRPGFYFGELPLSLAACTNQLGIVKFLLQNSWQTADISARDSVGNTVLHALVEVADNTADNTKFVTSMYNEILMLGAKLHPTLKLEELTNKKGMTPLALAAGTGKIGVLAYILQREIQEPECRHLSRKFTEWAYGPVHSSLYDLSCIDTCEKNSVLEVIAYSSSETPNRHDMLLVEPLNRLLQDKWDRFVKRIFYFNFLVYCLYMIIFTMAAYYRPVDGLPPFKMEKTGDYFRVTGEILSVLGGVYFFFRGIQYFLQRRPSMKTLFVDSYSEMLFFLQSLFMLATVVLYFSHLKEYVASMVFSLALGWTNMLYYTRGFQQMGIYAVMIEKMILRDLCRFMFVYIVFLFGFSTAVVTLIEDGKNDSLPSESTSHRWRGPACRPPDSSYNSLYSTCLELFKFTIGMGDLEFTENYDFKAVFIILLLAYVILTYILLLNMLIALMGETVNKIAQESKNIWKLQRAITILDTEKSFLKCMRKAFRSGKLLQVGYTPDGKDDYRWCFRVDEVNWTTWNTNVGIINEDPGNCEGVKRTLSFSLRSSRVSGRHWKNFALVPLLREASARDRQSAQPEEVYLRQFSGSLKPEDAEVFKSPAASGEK
pIC50: −log10 of the molar value.

- COMPOUND: "Oc1cc2c(cc1O)CN(C(=S)NCCc1ccc(Cl)cc1)CCC2 [capsazepine, reference compound]"
  pIC50: 6.25
